B1: library; a variant is named by its letters at N, in order (parent)
chain: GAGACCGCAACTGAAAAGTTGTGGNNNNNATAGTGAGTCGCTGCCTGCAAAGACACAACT

variants of: B1; assay: ligation selection enrichment (abundance after / before one-round selection) (fold); higher = more template-directed ligation activity; conditions: with T7Psub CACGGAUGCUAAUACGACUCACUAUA; MgCl2 25 mM; 42 °C; 4 h; pH 8.5
Class (required): determined from ligation selection enrichment; valid ranges are bottom end = under 0.2, midrange = from 0.2 up to 0.5, top end = 0.5 and over

{"VARIANT ID": "GATAA", "CATEGORY LABEL": "bottom end"}
{"VARIANT ID": "CTACA", "CATEGORY LABEL": "bottom end"}
{"VARIANT ID": "GGGGC", "CATEGORY LABEL": "midrange"}
{"VARIANT ID": "ATTAA", "CATEGORY LABEL": "top end"}
{"VARIANT ID": "CTTGC", "CATEGORY LABEL": "midrange"}
{"VARIANT ID": "ATGCA", "CATEGORY LABEL": "midrange"}
{"VARIANT ID": "TTGGC", "CATEGORY LABEL": "bottom end"}
{"VARIANT ID": "GCAAT", "CATEGORY LABEL": "top end"}
{"VARIANT ID": "AGATT", "CATEGORY LABEL": "top end"}
{"VARIANT ID": "TAGGT", "CATEGORY LABEL": "bottom end"}
{"VARIANT ID": "GTAAT", "CATEGORY LABEL": "top end"}
{"VARIANT ID": "GCAGG", "CATEGORY LABEL": "bottom end"}
{"VARIANT ID": "GCATC", "CATEGORY LABEL": "bottom end"}
{"VARIANT ID": "ATAGT", "CATEGORY LABEL": "bottom end"}
{"VARIANT ID": "GTCCG", "CATEGORY LABEL": "top end"}
{"VARIANT ID": "TGTTC", "CATEGORY LABEL": "bottom end"}
{"VARIANT ID": "CAATA", "CATEGORY LABEL": "bottom end"}
{"VARIANT ID": "GGAGG", "CATEGORY LABEL": "midrange"}
{"VARIANT ID": "GACAC", "CATEGORY LABEL": "bottom end"}
{"VARIANT ID": "ACAAA", "CATEGORY LABEL": "midrange"}
{"VARIANT ID": "CCTTT", "CATEGORY LABEL": "midrange"}
{"VARIANT ID": "TCAGA", "CATEGORY LABEL": "midrange"}
{"VARIANT ID": "GCGCT", "CATEGORY LABEL": "top end"}
{"VARIANT ID": "CTCAC", "CATEGORY LABEL": "bottom end"}
{"VARIANT ID": "TCGGC", "CATEGORY LABEL": "midrange"}
{"VARIANT ID": "GGGAG", "CATEGORY LABEL": "top end"}
{"VARIANT ID": "CGGTC", "CATEGORY LABEL": "bottom end"}
{"VARIANT ID": "AAGGC", "CATEGORY LABEL": "bottom end"}
{"VARIANT ID": "GTTGA", "CATEGORY LABEL": "top end"}
{"VARIANT ID": "CTTCT", "CATEGORY LABEL": "top end"}
{"VARIANT ID": "ACCCT", "CATEGORY LABEL": "midrange"}
{"VARIANT ID": "TTAAA", "CATEGORY LABEL": "midrange"}
{"VARIANT ID": "AACGA", "CATEGORY LABEL": "top end"}
{"VARIANT ID": "ACCAG", "CATEGORY LABEL": "midrange"}
{"VARIANT ID": "TGAAT", "CATEGORY LABEL": "top end"}
{"VARIANT ID": "GAAGC", "CATEGORY LABEL": "bottom end"}
{"VARIANT ID": "GTTAC", "CATEGORY LABEL": "midrange"}
{"VARIANT ID": "TGCCG", "CATEGORY LABEL": "top end"}
{"VARIANT ID": "GGTGG", "CATEGORY LABEL": "midrange"}
{"VARIANT ID": "GATAC", "CATEGORY LABEL": "bottom end"}
{"VARIANT ID": "GCAAG", "CATEGORY LABEL": "top end"}
{"VARIANT ID": "GAACC", "CATEGORY LABEL": "midrange"}
{"VARIANT ID": "CCGAC", "CATEGORY LABEL": "top end"}
{"VARIANT ID": "TTCTT", "CATEGORY LABEL": "bottom end"}
{"VARIANT ID": "GGCTC", "CATEGORY LABEL": "bottom end"}
